Tested on: CASKI
Assay: Primary qHTS to identify gynecologic anti-cancer compounds using libraries of approved drugs and bioactive compounds (AID 1345084); further: nearly all actives have a fitted effect of over 55% in size; further: potency means the concentration at half of the fitted maximal effect
Conditions: Gynecologic cancer cell panel viability, ATPlite luminescence, 48 h; series mostly up to 57.5 µM
Results filed as inconclusive are left out. Active and inactive are the calls of the source. The call rests on the fitted dose curve; in most records, active means well fitted cell-killing curve with a large enough effect; inconclusive means small, poorly fitted or top-dose-only effect, or effect the other way; inactive means flat fitted curve, though single readings scatter.
Observed Property: Potency

Molecule	Assay Target	Potency
CC(C)c1ccc2c(c1)C(=O)CC1[C@@](C)(C(=O)O)CCC[C@]21C (some centres undefined)	CASKI	inactive
Cc1c[nH]c2nccc(Oc3c(F)cc(Nc4cc(Cl)nc(N)n4)cc3F)c12	CASKI	inactive
CC1=C(C)C(=O)OC(C(C)C2CCC3C4C5OC5C5(O)CC(OC6OC(CO)C(OC7OC(C)C(O)C(O)C7O)C(O)C6O)CC(O)C5(C)C4CCC23C)C1 (centres undefined)	CASKI	inactive
CC1CCN(C(=O)CC#N)CC1N(C)c1ncnc2[nH]ccc12 (centres undefined)	CASKI	inactive
COc1ccc(CNC(=O)c2sc3nc(C)cc(C)c3c2N)cc1	CASKI	inactive

Please go through the list and note Potency for each molecule.
1. CC/C=C\[C@H](O)[C@H](O)C1=C(C)C(=O)[C@]2(O1)C(=O)N[C@@](OC)(C(=O)c1ccccc1)[C@@H]2O
2. COc1c/c(=C2\C=c3ccccc3=N2)[nH]/c1=C\c1[nH]c(C)cc1C
3. Cn1c(=O)cc(N2CCCC(N)C2)n(Cc2cc(F)ccc2C#N)c1=O (centres undefined)

Result string:
1. inactive
2. 12.6 µM (active)
3. inactive

Query string: Look up and report measured Potency for this entry: NC[C@@](O)(c1ccc(Cl)cc1)c1ccc(-c2cn[nH]c2)cc1
Result string: 28.2 µM (active)

* * *

Tested on: CASKI
Experiment: Primary qHTS to identify gynecologic anti-cancer compounds using libraries of approved drugs and bioactive compounds (AID 1345084); further: nearly all actives have a fitted effect of over 55% in size
Details: Gynecologic cancer cell panel viability, ATPlite luminescence, 48 h; series mostly up to 57.5 µM
Records with an inconclusive call do not appear. Active and inactive are the calls of the source. The call rests on the fitted dose curve; in most records, active means well fitted cell-killing curve with a large enough effect; inconclusive means small, poorly fitted or top-dose-only effect, or effect the other way; inactive means flat fitted curve, though single readings scatter.
Answer with one of the outcomes active, inactive

Worked set:
Molecule	Class
Cc1cc(C(=O)N2CCCCc3ccccc32)ccc1CNC(=O)N1CCC[C@H]1C(=O)N(C)C	inactive
CNC(=O)c1cc(Oc2ccc3nc(N[C@@H]4CCCC[C@H]4O)sc3c2)ccn1	inactive
Cc1noc(-c2ccc(-c3ccc(CC(=O)O)cc3)cc2)c1NC(=O)O[C@H](C)c1ccccc1	inactive
CNC(=S)NS(=O)(=O)c1cc(CCNC(=O)c2cc(Cl)ccc2OC)ccc1OC	inactive

Query string: Entry Cc1ccc(S(=O)(=O)Nc2ccccc2N2CCCCC2)s1 : call = ?
Result string: inactive

Query string: Entry Oc1ccc2nc(CN3CCC(Cc4ccccc4F)CC3)[nH]c2c1 : call = ?
Result string: inactive

Query string: Entry CC1=CC(=O)[C@]2(O[C@@H]3O[C@@H](C)[C@H](O)[C@@H](O)[C@H]3OC(=O)/C=C/c3ccccc3)C=CO[C@@H](O[C@@H]3O[C@H](CO)[C@@H](O)[C@H](O)[C@H]3O)[C@H]12 : call = ?
Result string: inactive

Query string: Entry CN(C)CCCCC(=O)Nc1ccc(NC(=S)NC(=O)c2ccc(C(C)(C)C)cc2)cc1 : call = ?
Result string: inactive

Query string: Entry Cn1nnc(-c2ccc(-c3ccc(N4C[C@H](COP(=O)(O)O)OC4=O)cc3F)cn2)n1 : call = ?
Result string: active

* * *

Test system: SKOV3
Assay: Primary qHTS to identify gynecologic anti-cancer compounds using libraries of approved drugs and bioactive compounds (AID 1345084); further: nearly all actives have a fitted effect of over 55% in size
Conditions: Gynecologic cancer cell panel viability, ATPlite luminescence, 48 h; series mostly up to 57.5 µM
Results filed as inconclusive are left out. Active and inactive are the calls of the source. The call rests on the fitted dose curve; in most records, active means well fitted cell-killing curve with a large enough effect; inconclusive means small, poorly fitted or top-dose-only effect, or effect the other way; inactive means flat fitted curve, though single readings scatter.
Answer with one of the outcomes 1 (yes) for active, 0 (no) for inactive

Compound	Class
O=C(O)Cc1ccc2oc(-c3ccc(NC(=O)/C=C/c4ccc(Br)cc4)c(F)c3)nc2c1	0 (no)
CC(C)c1cc(C(=O)N2CC[C@H](NC(=O)C3CC3)C2)n[nH]1	0 (no)
C=C1C[C@]23C[C@H]1[C@@H](O)C[C@H]2[C@@]12C=C[C@H](O)[C@@](C)(C(=O)O1)[C@H]2[C@@H]3C(=O)O	0 (no)

Query string: Entry CC1(C)CC[C@]2(C(=O)O)CC[C@]3(C)C(=CCC4[C@@]5(C)CC[C@H](O[C@@H]6O[C@H](CO)[C@@H](O)[C@H](O)[C@H]6O[C@@H]6O[C@H](CO)[C@@H](O)[C@H](O)[C@H]6O)[C@@](C)(CO)C5CC[C@]43C)[C@@H]2C1 (some centres not stated) : call = ?
Result string: 0 (no)

Query string: Entry O=C(Nc1ccc(S(=O)(=O)Nc2nccs2)cc1)C(c1ccccc1)c1ccccc1 : call = ?
Result string: 0 (no)

Query string: Entry COc1ccc(/C=C\C(=O)O)c(O[C@@H]2O[C@H](CO)[C@@H](O)[C@H](O)[C@H]2O)c1 : call = ?
Result string: 0 (no)

Query string: Entry C=C1C(=O)OC2C1CCC(=C)C1CC(OC(C)=O)C(=C)C12 (configuration not stated) : call = ?
Result string: 0 (no)

Query string: Entry C=C[C@H]1CN2CC[C@H]1C[C@@H]2C(O)c1ccnc2ccc(OC)cc12 (some centres not stated) : call = ?
Result string: 0 (no)

Query string: Entry COc1cc2c(cc1OC)CC(=O)N(CCCNC[C@H]1Cc3cc(OC)c(OC)cc31)CC2 : call = ?
Result string: 0 (no)

Query string: Entry O=C(c1cn(Cc2cncn2Cc2ccc(Br)cc2)cc1-c1cccc2ccccc12)N1CCOCC1 : call = ?
Result string: 1 (yes)

Query string: Entry C=C1CN(Cc2ccc(C(=O)Nc3ccccc3N)cc2)C(=O)c2ccccc21 : call = ?
Result string: 1 (yes)

Query string: Entry C=CC(C)(C)c1[nH]c2ccccc2c1C[C@@H]1NC(=O)[C@H](Cc2c[nH]c3ccccc23)NC1=O : call = ?
Result string: 0 (no)

Query string: Entry CCn1cc(NC(=S)Nc2cc(Cl)ccc2OC)c(C(N)=O)n1 : call = ?
Result string: 0 (no)

Query string: Entry C[C@@H]1CCC/C=C/[C@H]2CC(=O)C[C@@H]2[C@@H](O)/C=C/C(=O)O1 : call = ?
Result string: 0 (no)

Query string: Entry COc1ccc(/C=C/C(=O)O[C@@H]2[C@@H](O)[C@H](C)O[C@@H](O[C@H]3[C@@H]4C=CO[C@@H](O[C@H]5O[C@@H](CO)[C@H](O)[C@@H](O)[C@@H]5O)[C@@H]4[C@@]4(CO)O[C@@H]34)[C@@H]2OC(C)=O)cc1 : call = ?
Result string: 0 (no)

Query string: Entry N[C@H]1Cc2ccccc2N(O)C1=O : call = ?
Result string: 0 (no)

Query string: Entry C[C@]1(CO)CCC[C@]2(C)C3=C(CCC12)COC3 (some centres not stated) : call = ?
Result string: 0 (no)

* * *

Test system: SKOV3
Assay: Primary qHTS to identify gynecologic anti-cancer compounds using libraries of approved drugs and bioactive compounds (AID 1345084); further: nearly all actives have a fitted effect of over 55% in size
Conditions: Gynecologic cancer cell panel viability, ATPlite luminescence, 48 h; series mostly up to 57.5 µM
Results filed as inconclusive are left out. Active and inactive are the calls of the source. Calls come from the whole dose curve; as a rule, active = well fitted cell-killing curve with a large enough effect; inconclusive = small, poorly fitted or top-dose-only effect, or effect the other way; inactive = flat fitted curve, though single readings scatter.
Answer with one of the outcomes 1 = active, 0 = inactive

Worked set:
Compound	Assay Target	Class
Cc1cc(-c2cc(O)ccc2Cl)cc2nnc(Nc3ccc(OCCN4CCCC4)cc3)nc12	SKOV3	1
CC(C)=CCC/C(C)=C/CCC1(C)Oc2c(c(O)cc3c2CN(C(CCC(=O)O)C(=O)O)C3=O)CC1O (centres undefined)	SKOV3	0
Cc1cc(=O)oc2c(C=O)c(O)ccc12	SKOV3	0

Query string: Entry C=C(C(=O)O)C1CCC2(C)CCC(O)C(=C)C2C1 (centres undefined) : call = ?
Result string: 0

Query string: Entry CC(=O)OC/C=C(\C)C(CC1C(C)=C(OC(C)=O)C(=O)C2C(C)(C)C(O)CCC12C)OC(C)=O (centres undefined) : call = ?
Result string: 0

Query string: Entry CC(C)C(N)C(=O)OCCOCn1cnc2c(=O)[nH]c(N)nc21 (centres undefined) : call = ?
Result string: 0

Query string: Entry CC(=O)O[C@@H]1[C@@H](OC(=O)/C=C/c2ccccc2)[C@@H](OC(C)=O)[C@H](O[C@H]2[C@@H]3C=CO[C@@H](O[C@@H]4O[C@H](CO)[C@@H](O)[C@H](O)[C@H]4O)[C@@H]3[C@@]3(CO)O[C@@H]23)O[C@H]1C : call = ?
Result string: 0

* * *

Test system: CRL-7250
Test: Cytotoxic Profiling of Annotated Libraries Using Quantitative High-Throughput Screening (AID 1296008); further: on the % scale 0 is the no-effect control and ±100 the full control effect; nearly all actives have a fitted effect of over 60% in size
Conditions: Five cell lines viability, CellTiter-Glo ATP luminescence, 48-72 h; hits give low values
Inconclusive results are not listed.
For each record, write down the corresponding max response.
Numbers only, in %.

Past entries and their recorded results:
Molecule	Reading Unit	max response
C/C=C/C(O)C1OC(=O)CC1Nc1ccc(C(=O)O)cc1 (centres undefined)	%	4.31
Cc1cc(N2CCN([C@@H]3CN[C@H](C(=O)N4CCSC4)C3)CC2)n(-c2ccccc2)n1	%	-17.8
C/C=C(\C)C(=O)OCC1OC(OC2OC(COC(=O)/C(C)=C/C)C(OC3OC(CO)C(OC(=O)/C(C)=C/C)C(OC(=O)/C(C)=C/C)C3O)C(O)C2O)C(O)C(O)C1OC1OC(CO)C(OC(=O)/C(C)=C/C)C(OC(=O)/C(C)=C/C)C1O (centres undefined)	%	-8.02
CC/C=C\CCO[C@@H]1O[C@H](CO)[C@@H](O)[C@H](O)[C@H]1O	%	-3.17
COC(=O)c1ccc(OC(CO)C(O)c2ccc(O)c(OC)c2)c(OC)c1 (centres undefined)	%	0.832

Please go through the list and note max response for each molecule.
1. CC1(C)CCCC2(C)C(CO)C(CO)=CCC12 (centres undefined)
2. O=C1CC2(CCCC2)[C@H](O)C(=O)N1CCCCN1CCN(c2ncccn2)CC1

Result string:
[-20.3, 2.44]

Please go through the list and note max response for each molecule.
1. Cc1cc(C)nc(NS(=O)(=O)c2ccc(NC(=S)NC(=O)COc3ccc(Br)cc3Cl)cc2)n1
2. C[C@@H]1O[C@@H](O[C@H]2[C@@H](OC(=O)[C@]34CCC(C)(C)CC3C3=CCC5[C@@]6(C)C[C@H](O)[C@H](O[C@@H]7O[C@H](C(=O)O)[C@@H](O)[C@H](O)[C@H]7O)[C@@](C)(C(=O)O)C6CC[C@@]5(C)[C@]3(C)CC4)OC[C@H](O)[C@@H]2O)[C@H](O)[C@H](O)[C@H]1O[C@@H]1OC[C@@H](O)[C@H](O)[C@H]1O (some centres undefined)
3. Nc1ncnc2c([C@@H]3N[C@H](CO)[C@@H](O)[C@H]3O)c[nH]c12
4. Cc1c(F)cc(C(=O)NC2CC2)cc1-c1c(F)cn2c(C(C)(C)C)nnc2c1F

Result string:
[3.21, -0.804, -1.11, -14.4]

Please go through the list and note max response for each molecule.
1. Cc1ccccc1C#Cc1ccc(CCC(=O)O)cc1
2. CCn1cc(NC(=S)Nc2cc(Cl)ccc2OC)c(C(N)=O)n1

Result string:
1. -3.17
2. -6.99

Please go through the list and note max response for each molecule.
1. Cc1cc2c(c(=O)[nH]1)OC(C(O)CC(C)C)O2 (centres undefined)
2. COC(=O)CCC(=O)OC[C@]1(C)CCC[C@@]2(C)C3CC[C@]4(C)C=CC3(CCC12)C4 (some centres undefined)
3. CC(=O)N[C@H]1[C@H](O[C@H]2CC[C@@]3(C)C(CC[C@]4(C)C3CC=C3[C@@H]5CC(C)(C)CC[C@]5(C(=O)OC5OCC(O)C(O)C5O)CC[C@]34C)C2(C)C)O[C@H](COC2OC(C)C(O)C(OC3OC(C)C(O)C(O)C3O)C2O)[C@@H](O)[C@@H]1O (some centres undefined)
4. O=C1NC2CCc3nc4ccccc4c(=O)n3C2=Nc2ccccc21 (centres undefined)
5. CC1=CC(=O)CC2C1(O)CCC(C)C21CC(c2ccoc2)OC1=O (centres undefined)
6. CC(Nc1ncnc2nc[nH]c12)c1cc2cccc(Cl)c2c(=O)n1-c1ccccc1 (centres undefined)
7. CC1CC(=O)C2=C(CCC3(O)C(O)c4c(O)cccc4C(=O)C23O)C1 (centres undefined)
8. O=C(O)CC(=O)OC[C@H]1O[C@@H](Oc2ccc3c(c2)OC[C@H]2c4cc5c(cc4O[C@@H]32)OCO5)[C@H](O)[C@@H](O)[C@@H]1O

Result string:
1: -20.7; 2: -4.15; 3: -6.06; 4: 2.4; 5: -9.3; 6: -7.8; 7: -7.17; 8: -24.1

Please go through the list and note max response for each molecule.
1. CC1=CCC(C(C)(C)O[C@@H]2O[C@H](CO[C@@H]3O[C@@H](C)[C@H](O)[C@@H](O)[C@H]3O)[C@@H](O)[C@H](O)[C@H]2O)CC1 (some centres undefined)
2. C/C=C1\[C@H](OC2OC(COC3OC(CO)C(O)C(O)C3O)C(O)C(O)C2O)OC=C(C(=O)OC)[C@H]1CC(=O)OCCc1ccc(O)cc1 (some centres undefined)
3. CC(CO)C1CCC2(C)CC3C(CO)CC(O)C3C(C)(O)C/C=C/12 (centres undefined)
4. Cc1cn(C2C=CC(CO)O2)c(=O)[nH]c1=O (centres undefined)
5. CC(C)=CC/C=C(\C)[C@H]1CC[C@]2(C)[C@@H]1[C@H](O)C[C@@H]1[C@@]3(C)CC[C@H](O)C(C)(C)[C@@H]3[C@@H](O[C@@H]3O[C@H](CO)[C@@H](O)[C@H](O)[C@H]3O)C[C@]12C

Result string:
-8.36
-3.04
-6.97
-8.63
2.02

Please go through the list and note max response for each molecule.
1. CC1=C(COC2OC(CO)C(O)C(O)C2O)C(C(CO)C(=O)O)CC1 (centres undefined)
2. CC1(C(=O)O)CCCC2(C)C3CCC4CC3(CCC12)CC4=O (centres undefined)
3. [N-]=[N+]=N[C@]1(CO)O[C@@H](n2ccc(=O)[nH]c2=O)[C@@H](O)[C@@H]1O

Result string:
[2.58, -1.87, 0.828]

Please go through the list and note max response for each molecule.
1. c1cc(OCCCN2CCCCC2)ccc1CN1CCCCC1
2. Cc1cc(C)c(CNC(=O)c2cc(-c3ccc(CN4CCOCC4)cc3)cc3c2cnn3C2CCCC2)c(=O)[nH]1
3. CCNC(=O)Nc1ncc(-c2cc(-c3c(C)cc(OC)cc3C)nc(-c3cnccn3)n2)s1
4. CCOc1ccc(NC(=S)N2CCC(C(O)(c3ccccc3)c3ccccc3)CC2)cc1
5. Cc1cc(=O)oc2c(C=O)c(O)ccc12

Result string:
1: -3.26; 2: 1.71; 3: -11.4; 4: -3; 5: 0.427
